Task for the reader: assign each of the following compounds its reported mMC5R Fold Diff..
Biological target: mMC5R (Mus musculus, UniProt P41149)
Sequence (P41149 whole entry): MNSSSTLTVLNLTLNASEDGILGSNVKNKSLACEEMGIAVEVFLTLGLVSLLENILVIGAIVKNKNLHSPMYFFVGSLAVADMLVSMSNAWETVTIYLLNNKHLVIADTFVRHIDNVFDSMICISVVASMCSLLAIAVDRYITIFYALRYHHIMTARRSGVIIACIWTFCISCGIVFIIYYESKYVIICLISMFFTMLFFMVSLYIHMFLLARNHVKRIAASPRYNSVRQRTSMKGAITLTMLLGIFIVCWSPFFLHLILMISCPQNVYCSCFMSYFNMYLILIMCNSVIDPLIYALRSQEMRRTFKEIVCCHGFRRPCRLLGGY
Test: CRE/β-galactosidase reporter gene bioassay, agonist activity at mMC5R
Type: cell-based
Conditions: fold difference in EC50 vs peptide 1; negative prefix = more potent than 1
Square brackets hold non-standard residues; d marks the D form. Peptide text beside a SMILES is read from it. * marks the point of attachment. Bip = N[C@@H](Cc1ccc(-c2ccccc2)cc1)C(=O)O; dBip = N[C@H](Cc1ccc(-c2ccccc2)cc1)C(=O)O; 2Nal = N[C@@H](Cc1ccc2ccccc2c1)C(=O)O; d1Nal = N[C@H](Cc1cccc2ccccc12)C(=O)O; Octanoyl = CCCCCCCC(=O)*
Give bare numbers.

Guide cases for mMC5R Fold Diff., answers given:
CC(=O)N[C@@H](Cc1c[nH]c2ccccc12)C(=O)N[C@H](Cc1cccc2ccccc12)C(=O)N[C@@H](CCCNC(=N)N)C(=O)N[C@@H](Cc1c[nH]c2ccccc12)C(N)=O [Peptide 19, Ac-Trp-DNal(1’)-Arg-Trp-NH2] (Ac-W[d1Nal]RW-NH2) | 725
CCCCCCCC(=O)N[C@@H](Cc1c[nH]cn1)C(=O)N[C@H](Cc1ccccc1)C(=O)N[C@@H](CCCNC(=N)N)C(=O)N[C@@H](Cc1ccc(-c2ccccc2)cc1)C(N)=O [Peptide 2, Octanoyl-His-DPhe-Arg-Bip-NH2] (Octanoyl-H[dF]R[Bip]-NH2) | 12

Switching to the query record.
The reported mMC5R (Mus musculus, UniProt P41149) mMC5R Fold Diff. of CC(=O)N[C@@H](Cc1c[nH]cn1)C(=O)N[C@H](Cc1ccc(-c2ccccc2)cc1)C(=O)N[C@@H](CCCNC(=N)N)C(=O)N[C@@H](Cc1ccc2ccccc2c1)C(N)=O [Peptide 36, Ac-His-DBip-Arg-Nal(2’)-NH2] (Ac-H[dBip]R[2Nal]-NH2) is 4

----------
Target: mMC5R (Mus musculus, UniProt P41149)
Test: CRE/β-galactosidase reporter gene bioassay, agonist activity at mMC5R
Type: cell-based
Square brackets hold non-standard residues; d marks the D form. Peptide text beside a SMILES is read from it. dPhe(4-I) = N[C@H](Cc1ccc(I)cc1)C(=O)O; d1Nal = N[C@H](Cc1cccc2ccccc12)C(=O)O
Task for the reader: assign each of the following compounds its reported pEC50.
Numbers only, as −log10 of the molar value.

CC(=O)N[C@@H](Cc1ccccc1)C(=O)N[C@H](Cc1ccc(I)cc1)C(=O)N[C@@H](CCCNC(=N)N)C(=O)N[C@@H](Cc1c[nH]c2ccccc12)C(N)=O [Peptide 15, Ac-Phe-(pI)DPhe-Arg-Trp-NH2] (Ac-F[dPhe(4-I)]RW-NH2) | 6.85

Switching to the query record.
pEC50 reading for CC(=O)N[C@@H](Cc1c[nH]c2ccccc12)C(=O)N[C@H](Cc1cccc2ccccc12)C(=O)N[C@@H](CCCNC(=N)N)C(=O)N[C@@H](Cc1c[nH]c2ccccc12)C(N)=O [Peptide 19, Ac-Trp-DNal(1’)-Arg-Trp-NH2] (Ac-W[d1Nal]RW-NH2) : 5.41

----------
Molecular target: mMC1R (Mus musculus)
Sequence (Q01727 whole entry): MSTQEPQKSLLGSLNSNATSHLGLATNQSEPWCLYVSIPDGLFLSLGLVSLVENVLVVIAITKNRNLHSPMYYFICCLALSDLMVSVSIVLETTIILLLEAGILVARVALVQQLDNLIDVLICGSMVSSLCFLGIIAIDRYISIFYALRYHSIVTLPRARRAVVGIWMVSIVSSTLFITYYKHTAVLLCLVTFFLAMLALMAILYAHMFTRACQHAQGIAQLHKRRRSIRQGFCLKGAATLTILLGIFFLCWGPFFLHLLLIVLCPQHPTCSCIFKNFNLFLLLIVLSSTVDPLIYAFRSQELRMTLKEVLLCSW
Experiment: CRE/β-galactosidase reporter gene bioassay, agonist activity at mMC1R
Format: cell-based
Settings: mMC1R EC50, agonist; HEK-293 cells stably expressing receptor; ±SEM
Readout Name: pEC50
Give bare numbers, as −log10 of the molar value.

Give pEC50 for each listed item.
1. CCCCCCCC(=O)N[C@H](Cc1c[nH]cn1)C(=O)N[C@H](Cc1ccccc1)C(=O)N[C@@H](CCCNC(=N)N)C(=O)N[C@@H](Cc1c[nH]c2ccccc12)C(N)=O [Peptide 9, Octanoyl-DHis-DPhe-Arg-Trp-NH2]
2. CCCCCCCC(=O)N[C@@H](Cc1c[nH]cn1)C(=O)N[C@H](Cc1ccc(-c2ccccc2)cc1)C(=O)N[C@@H](CCCNC(=N)N)C(=O)N[C@@H](Cc1c[nH]c2ccccc12)C(N)=O [Peptide 7, Octanoyl-His-DBip-Arg-Trp-NH2]

OUTPUT:
[6.64, 8.43]
